- targetDesc: OAT4 (Homo sapiens)
- Sequence (Q9NSA0 1-550): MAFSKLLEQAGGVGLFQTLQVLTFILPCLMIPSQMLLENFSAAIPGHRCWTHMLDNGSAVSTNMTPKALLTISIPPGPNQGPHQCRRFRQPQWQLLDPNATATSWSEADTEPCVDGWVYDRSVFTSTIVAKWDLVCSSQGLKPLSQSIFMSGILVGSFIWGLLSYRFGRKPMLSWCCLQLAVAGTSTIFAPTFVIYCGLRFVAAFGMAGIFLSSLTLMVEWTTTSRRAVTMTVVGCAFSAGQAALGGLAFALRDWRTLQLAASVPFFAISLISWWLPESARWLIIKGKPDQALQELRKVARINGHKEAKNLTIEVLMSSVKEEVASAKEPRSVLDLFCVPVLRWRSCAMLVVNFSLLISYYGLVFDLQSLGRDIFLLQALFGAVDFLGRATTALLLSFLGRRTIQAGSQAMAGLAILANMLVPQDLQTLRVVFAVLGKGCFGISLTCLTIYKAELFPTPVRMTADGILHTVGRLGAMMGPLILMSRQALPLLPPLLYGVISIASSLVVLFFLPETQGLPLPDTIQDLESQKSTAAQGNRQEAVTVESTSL
- testProtocol: OAT4 urate (14C-uric acid) transport in transfected HEK293/293T cells
- Assay type: cell-based
- Design: expressed in transfected cells
- conditionContext: varying amounts of drug; read-out: OAT4 IC50 (OAT4 urate transport, cpm)
- Procedure: For cultured cells, HEK293 cells stably expressing the transporters were produced through transfection of DNA constructs carrying the transporters, antibiotic selection, and clonal selection of clones with high transporter activity. Alternatively, cells transiently expressing the transporters were produced by reverse transfection of HEK293T cells. Transfectants were plated at high density onto poly-L-lysine coated multiwell plates and assayed 1-2 days later.
propertyLabel: IC50 (µM)
The reply should contain only the number, in µM.

Which IC50 value belongs to CCc1oc2ccccc2c1C(=O)c1cc(Br)c(O)c(Br)c1 ?
10
